# pKi listing for each entry below
- measuredOn: CRTH2 (Homo sapiens (Human))
- Sequence (Q9Y5Y4 whole entry): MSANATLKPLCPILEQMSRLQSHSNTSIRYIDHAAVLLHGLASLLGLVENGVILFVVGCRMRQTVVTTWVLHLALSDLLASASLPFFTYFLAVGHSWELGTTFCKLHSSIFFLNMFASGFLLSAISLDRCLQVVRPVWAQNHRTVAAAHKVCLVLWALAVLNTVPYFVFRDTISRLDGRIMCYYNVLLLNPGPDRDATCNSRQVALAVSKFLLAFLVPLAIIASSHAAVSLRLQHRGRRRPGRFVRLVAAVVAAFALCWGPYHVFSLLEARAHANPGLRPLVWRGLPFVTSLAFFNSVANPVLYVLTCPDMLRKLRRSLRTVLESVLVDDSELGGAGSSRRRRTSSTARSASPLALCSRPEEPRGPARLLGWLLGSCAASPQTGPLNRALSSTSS
- methodNotes: CRTH2 receptor binding inhibitory activity ([3H]-PGD2 displacement, membranes of CRTH2-expressing K562 cell)
- conditionLabel: [3H]-PGD2 displacement, membrane of CRTH2-expressing K562 cell; read-out: Ki
The read-out pKi is expressed as -log10 of concentration in moles per litre.

Solved cases below.
molecule: CCOc1ccc(S(=O)(=O)N2C[C@@H](C)[C@@H](n3nc(CC(=O)O)c4ccc(C#N)cc43)C2)cn1
pKi: 7.96
//
molecule: CCOc1ccc(S(=O)(=O)N2C[C@@H](n3nc(CC(=O)O)c4ccccc43)[C@@H]3COC[C@@H]32)cc1
pKi: 7.00

Input: What value of measured pKi is listed for `CCOc1ccc(S(=O)(=O)N2C[C@@H](C)[C@@H](n3nc(CC(=O)O)c4ccccc43)C2)s1` ?
Output: 7.82

Input: Subsequent entry: `CCOc1ccc(S(=O)(=O)N2C[C@@H](C)[C@@H](n3nc(CC(=O)O)c4ccccc43)C2)nc1`
Output: 7.82

Input: Subsequent entry: `CC(C)Oc1ccc(S(=O)(=O)N2CC[C@@H](n3nc(CC(=O)O)c4ccc(F)cc43)[C@@H]2C)cc1`
Output: 8.00

Input: Subsequent entry: `CC(C)Oc1ccc(S(=O)(=O)N2C[C@@H](C)[C@@H](n3nc(CC(=O)O)c4ccc(F)cc43)C2)nc1`
Output: 8.32

Input: Subsequent entry: `CC(C)Oc1ccc(S(=O)(=O)N2C[C@H](n3nc(CC(=O)O)c4ccc(F)cc43)C[C@@H]2c2ccccc2)cc1`
Output: 7.52

Input: Subsequent entry: `C[C@@H]1CN(S(=O)(=O)c2ccc(C3CC3)cc2)C[C@@H]1n1nc(CC(=O)O)c2ccc(F)cc21`
Output: 7.77

Input: Subsequent entry: `CC(C)Oc1ccc(S(=O)(=O)N2C[C@@H](C)[C@@H](n3nc(CC(=O)O)c4ccc(F)cc43)C2)cc1`
Output: 8.62

Input: Subsequent entry: CC(C)C1CC1S(=O)(=O)N1C[C@@H](C)[C@@H](n2nc(CC(=O)O)c3ccc(F)cc32)C1 (stereo partly shown)
Output: 8.36

Input: Subsequent entry: `CCOc1ccc(S(=O)(=O)N2C[C@H](n3nc(CC(=O)O)c4ccccc43)C[C@@H]2C#N)cc1`
Output: 6.57

Input: Subsequent entry: `Cc1c(CC(=O)O)c2ccccc2n1[C@@H]1C[C@H](C)N(S(=O)(=O)c2ccc(OC(F)F)cc2)C1`
Output: 6.66

Input: Subsequent entry: `CC(C)Oc1ccc(S(=O)(=O)N2C[C@@H](C)[C@@H](n3nc(CC(=O)O)c4ccc(Cl)cc43)C2)cc1`
Output: 8.68

Input: Subsequent entry: `CC(C)Oc1ccc(S(=O)(=O)N2C[C@H](n3nc(CC(=O)O)c4ccc(F)cc43)C[C@H]2C)cc1`
Output: 8.09

----------
- measuredOn: CRTH2 (Homo sapiens (Human))
- methodNotes: CRTH2 receptor binding inhibitory activity ([3H]-PGD2 displacement, membranes of CRTH2-expressing K562 cell)
- conditionLabel: CRTH2 receptor binding, [3H]-PGD2 displacement, membrane of CRTH2-expressing K562 cell; categorized AAAA/AAA; read-out: Ki
pKi: −log10 of the molar value.
# pKi listing for each entry below

compound: CC(C)Oc1ccc(S(=O)(=O)N2C[C@H](n3nc(CC(=O)O)c4ccc(F)cc43)C[C@]2(C)C#N)cc1 [Compound I-104]
reading: > 7.00

Input: Lab request: please report pKi under test system CRTH2 (Homo sapiens (Human)) for CCOc1ccc(S(=O)(=O)N2C[C@@H](C)[C@@H](n3cc(CC(=O)O)c4ccc(C#N)cc43)C2)cc1 [Compound I-256]
Output: > 7.00

Input: Subsequent entry: CC(C)Oc1ccc(S(=O)(=O)N2C[C@H](n3nc(CC(=O)O)c4ccc(F)cc43)C[C@H]2C)cc1 [Compound I-10]
Output: > 7.00

Input: Subsequent entry: Cc1ccc(S(=O)(=O)N2C[C@@H](C)[C@@H](n3nc(CC(=O)O)c4ccc(F)cc43)C2)cc1 [Compound I-117]
Output: > 7.00
